- Target Of Assay: EGFR (human), P00533 [L858R]
- Sequence (P00533 whole entry L858R, looked up): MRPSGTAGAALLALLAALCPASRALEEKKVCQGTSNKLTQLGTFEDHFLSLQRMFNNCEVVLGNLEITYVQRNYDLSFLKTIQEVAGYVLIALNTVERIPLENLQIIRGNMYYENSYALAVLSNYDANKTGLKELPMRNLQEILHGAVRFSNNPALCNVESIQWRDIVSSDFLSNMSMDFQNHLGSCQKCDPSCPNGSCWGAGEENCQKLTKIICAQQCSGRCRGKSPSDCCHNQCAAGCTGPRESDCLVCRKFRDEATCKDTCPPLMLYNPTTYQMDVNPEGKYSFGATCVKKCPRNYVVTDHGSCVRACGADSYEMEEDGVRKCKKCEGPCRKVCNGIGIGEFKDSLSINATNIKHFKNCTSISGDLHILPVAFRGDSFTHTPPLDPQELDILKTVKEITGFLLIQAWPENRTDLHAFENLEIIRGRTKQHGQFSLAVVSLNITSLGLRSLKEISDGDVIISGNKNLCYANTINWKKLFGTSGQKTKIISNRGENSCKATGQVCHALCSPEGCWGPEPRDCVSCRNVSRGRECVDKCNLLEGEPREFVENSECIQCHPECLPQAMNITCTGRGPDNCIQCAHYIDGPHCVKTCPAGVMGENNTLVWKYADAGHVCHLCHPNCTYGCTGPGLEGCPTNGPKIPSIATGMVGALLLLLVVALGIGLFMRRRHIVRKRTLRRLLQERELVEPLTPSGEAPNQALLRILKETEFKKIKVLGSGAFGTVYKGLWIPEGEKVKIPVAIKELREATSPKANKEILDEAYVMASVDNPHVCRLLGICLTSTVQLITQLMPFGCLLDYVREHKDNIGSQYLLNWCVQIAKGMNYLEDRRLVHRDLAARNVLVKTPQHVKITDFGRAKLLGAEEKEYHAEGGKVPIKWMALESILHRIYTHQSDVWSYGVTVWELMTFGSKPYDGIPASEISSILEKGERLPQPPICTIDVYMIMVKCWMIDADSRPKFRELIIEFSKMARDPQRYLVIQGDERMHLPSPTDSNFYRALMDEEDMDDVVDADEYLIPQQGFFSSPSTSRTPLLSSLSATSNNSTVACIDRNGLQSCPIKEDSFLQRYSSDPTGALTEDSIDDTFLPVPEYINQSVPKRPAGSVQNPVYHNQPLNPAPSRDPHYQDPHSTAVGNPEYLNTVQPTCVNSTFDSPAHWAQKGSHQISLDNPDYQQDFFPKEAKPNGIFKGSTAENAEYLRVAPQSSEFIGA
- Protocol Details: Enzyme Assay
Readout: IC50 (nM)

Before answering, review these 3 worked examples.
CN(C)[C@H]1CCN(Cc2ccc(C(=O)N[C@@H]3[C@H]4Oc5ccc(Oc6ccnc7c6CCC(=O)N7)cc5[C@@H]34)cc2C(F)(F)F)C1 ... 0.3
O=C1CCc2c(Oc3ccc4c(c3)[C@H]3[C@H](NC(=O)c5ccc(CN6CCN(CCO)CC6)c(C(F)(F)F)c5)[C@H]3O4)ccnc2N1 ... 0.26
O=C(C=Cc1cccc(C(F)(F)F)c1)N[C@@H]1[C@H]2Oc3ccc(Oc4ccnc5c4CCC(=O)N5)cc3[C@@H]12 ... 68

P. CN1CCN(Cc2ccc(C(=O)N[C@@H]3[C@H]4Oc5ccc(Oc6ccnc7c6COC(=O)N7)cc5[C@@H]34)cc2C(F)(F)F)CC1
Q. Cc1cc(C(=O)N[C@@H]2[C@H]3Oc4ccc(Oc5ccnc6c5CCC(=O)N6)cc4[C@@H]23)ccc1CN1CCN(C)CC1
R. CN1CCN(CCOc2ccc(C(=O)N[C@@H]3[C@H]4Oc5ccc(Oc6ccnc7c6CCC(=O)N7)cc5[C@@H]34)cc2C(F)(F)F)CC1
Please list the entries, largest IC50 first. Provide your answer as the labels ordered per the instruction. R, Q, P

A. CN(C)C1CCN(Cc2ccc(C(=O)N[C@@H]3[C@H]4Oc5ccc(Oc6ccnc7c6CCC(=O)N7)cc5[C@@H]34)cc2C(F)(F)F)CC1
B. CN(C)[C@@H]1CCN(Cc2ccc(C(=O)N[C@@H]3[C@H]4Oc5ccc(Oc6ccnc7c6CCC(=O)N7)cc5[C@@H]34)cc2C(F)(F)F)C1
Which is greater in IC50, the first item A or the second item B ? Refer to your chosen entry by its label in the reply. B

###

- Target Of Assay: EGFR (Human), P00533 [T790M/L858R]
- Sequence (P00533 whole entry T790M/L858R, looked up): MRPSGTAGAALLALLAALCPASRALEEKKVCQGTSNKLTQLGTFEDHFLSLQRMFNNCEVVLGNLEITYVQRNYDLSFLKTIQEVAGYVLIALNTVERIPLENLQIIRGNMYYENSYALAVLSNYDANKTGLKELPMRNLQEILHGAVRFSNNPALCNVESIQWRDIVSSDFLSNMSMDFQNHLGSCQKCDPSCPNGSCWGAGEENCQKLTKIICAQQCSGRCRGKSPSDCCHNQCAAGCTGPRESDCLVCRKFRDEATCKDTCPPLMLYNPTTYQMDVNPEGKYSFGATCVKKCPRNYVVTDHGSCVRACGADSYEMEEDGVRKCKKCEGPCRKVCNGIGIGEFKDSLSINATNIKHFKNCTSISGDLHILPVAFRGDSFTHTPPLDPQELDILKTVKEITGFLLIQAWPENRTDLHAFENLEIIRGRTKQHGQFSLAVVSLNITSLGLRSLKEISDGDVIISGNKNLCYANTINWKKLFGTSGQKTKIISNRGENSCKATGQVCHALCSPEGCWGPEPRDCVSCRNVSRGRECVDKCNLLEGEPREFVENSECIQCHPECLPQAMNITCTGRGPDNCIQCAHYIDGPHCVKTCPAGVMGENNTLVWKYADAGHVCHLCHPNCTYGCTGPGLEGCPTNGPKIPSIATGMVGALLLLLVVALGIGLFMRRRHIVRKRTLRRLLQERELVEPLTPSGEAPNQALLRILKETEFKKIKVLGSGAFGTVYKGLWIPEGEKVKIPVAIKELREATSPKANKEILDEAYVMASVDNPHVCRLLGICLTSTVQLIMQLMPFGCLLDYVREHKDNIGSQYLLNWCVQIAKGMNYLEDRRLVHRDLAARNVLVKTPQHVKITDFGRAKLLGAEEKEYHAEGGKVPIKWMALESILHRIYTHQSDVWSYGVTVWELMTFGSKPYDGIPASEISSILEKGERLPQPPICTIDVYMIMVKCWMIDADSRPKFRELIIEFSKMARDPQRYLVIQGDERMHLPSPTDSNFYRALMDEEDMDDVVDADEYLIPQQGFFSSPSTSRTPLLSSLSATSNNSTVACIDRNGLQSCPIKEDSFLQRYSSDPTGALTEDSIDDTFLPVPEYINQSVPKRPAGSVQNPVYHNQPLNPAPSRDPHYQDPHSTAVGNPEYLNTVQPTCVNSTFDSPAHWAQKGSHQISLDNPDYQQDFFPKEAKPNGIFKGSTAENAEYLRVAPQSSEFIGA
- Protocol Details: Enzyme Assay
pIC50: −log10 of the molar value.
Readout: pIC50

Before answering, review these 5 worked examples.
O=C1CCc2c(Oc3ccc4c(c3)[C@H]3[C@H](NC(=O)c5ccc(CN6CCN(CCO)CC6)c(C(F)(F)F)c5)[C@H]3O4)ccnc2N1 ... 9.12
CN(C)C1CCN(Cc2ccc(C(=O)N[C@@H]3[C@H]4Oc5ccc(Oc6ccnc7c6CCC(=O)N7)cc5[C@@H]34)cc2C(F)(F)F)CC1 ... 9.38
O=C(C=Cc1cccc(C(F)(F)F)c1)N[C@@H]1[C@H]2Oc3ccc(Oc4ccnc5c4CCC(=O)N5)cc3[C@@H]12 ... 5.94
CN(C)[C@H]1CCN(Cc2ccc(C(=O)N[C@@H]3[C@H]4Oc5ccc(Oc6ccnc7c6CCC(=O)N7)cc5[C@@H]34)cc2C(F)(F)F)C1 ... 9.52
CN1CCN(CCOc2ccc(C(=O)N[C@@H]3[C@H]4Oc5ccc(Oc6ccnc7c6CCC(=O)N7)cc5[C@@H]34)cc2C(F)(F)F)CC1 ... 7.49

1. Cc1cc(C(=O)N[C@@H]2[C@H]3Oc4ccc(Oc5ccnc6c5CCC(=O)N6)cc4[C@@H]23)ccc1CN1CCN(C)CC1
2. CN1CCN(Cc2ccc(C(=O)N[C@@H]3[C@H]4Oc5ccc(Oc6ccnc7c6COC(=O)N7)cc5[C@@H]34)cc2C(F)(F)F)CC1
Which is greater in pIC50, the first item 1 or the second item 2 ? Refer to your chosen entry by its label in the reply. 2
(2: 9.31, 1: 8.51)
